target: wild-type human cardiac sodium channel, hNav1.5 (Homo sapiens, UniProt Q14524); assay: Peak INa screening assay (tonic and use-dependent block); type: cell-based; details: use-dependent block of peak INa, 3 Hz; compound at 1 μM; read-out: Peak UDB 1 μM
Sequence (Q14524 whole entry): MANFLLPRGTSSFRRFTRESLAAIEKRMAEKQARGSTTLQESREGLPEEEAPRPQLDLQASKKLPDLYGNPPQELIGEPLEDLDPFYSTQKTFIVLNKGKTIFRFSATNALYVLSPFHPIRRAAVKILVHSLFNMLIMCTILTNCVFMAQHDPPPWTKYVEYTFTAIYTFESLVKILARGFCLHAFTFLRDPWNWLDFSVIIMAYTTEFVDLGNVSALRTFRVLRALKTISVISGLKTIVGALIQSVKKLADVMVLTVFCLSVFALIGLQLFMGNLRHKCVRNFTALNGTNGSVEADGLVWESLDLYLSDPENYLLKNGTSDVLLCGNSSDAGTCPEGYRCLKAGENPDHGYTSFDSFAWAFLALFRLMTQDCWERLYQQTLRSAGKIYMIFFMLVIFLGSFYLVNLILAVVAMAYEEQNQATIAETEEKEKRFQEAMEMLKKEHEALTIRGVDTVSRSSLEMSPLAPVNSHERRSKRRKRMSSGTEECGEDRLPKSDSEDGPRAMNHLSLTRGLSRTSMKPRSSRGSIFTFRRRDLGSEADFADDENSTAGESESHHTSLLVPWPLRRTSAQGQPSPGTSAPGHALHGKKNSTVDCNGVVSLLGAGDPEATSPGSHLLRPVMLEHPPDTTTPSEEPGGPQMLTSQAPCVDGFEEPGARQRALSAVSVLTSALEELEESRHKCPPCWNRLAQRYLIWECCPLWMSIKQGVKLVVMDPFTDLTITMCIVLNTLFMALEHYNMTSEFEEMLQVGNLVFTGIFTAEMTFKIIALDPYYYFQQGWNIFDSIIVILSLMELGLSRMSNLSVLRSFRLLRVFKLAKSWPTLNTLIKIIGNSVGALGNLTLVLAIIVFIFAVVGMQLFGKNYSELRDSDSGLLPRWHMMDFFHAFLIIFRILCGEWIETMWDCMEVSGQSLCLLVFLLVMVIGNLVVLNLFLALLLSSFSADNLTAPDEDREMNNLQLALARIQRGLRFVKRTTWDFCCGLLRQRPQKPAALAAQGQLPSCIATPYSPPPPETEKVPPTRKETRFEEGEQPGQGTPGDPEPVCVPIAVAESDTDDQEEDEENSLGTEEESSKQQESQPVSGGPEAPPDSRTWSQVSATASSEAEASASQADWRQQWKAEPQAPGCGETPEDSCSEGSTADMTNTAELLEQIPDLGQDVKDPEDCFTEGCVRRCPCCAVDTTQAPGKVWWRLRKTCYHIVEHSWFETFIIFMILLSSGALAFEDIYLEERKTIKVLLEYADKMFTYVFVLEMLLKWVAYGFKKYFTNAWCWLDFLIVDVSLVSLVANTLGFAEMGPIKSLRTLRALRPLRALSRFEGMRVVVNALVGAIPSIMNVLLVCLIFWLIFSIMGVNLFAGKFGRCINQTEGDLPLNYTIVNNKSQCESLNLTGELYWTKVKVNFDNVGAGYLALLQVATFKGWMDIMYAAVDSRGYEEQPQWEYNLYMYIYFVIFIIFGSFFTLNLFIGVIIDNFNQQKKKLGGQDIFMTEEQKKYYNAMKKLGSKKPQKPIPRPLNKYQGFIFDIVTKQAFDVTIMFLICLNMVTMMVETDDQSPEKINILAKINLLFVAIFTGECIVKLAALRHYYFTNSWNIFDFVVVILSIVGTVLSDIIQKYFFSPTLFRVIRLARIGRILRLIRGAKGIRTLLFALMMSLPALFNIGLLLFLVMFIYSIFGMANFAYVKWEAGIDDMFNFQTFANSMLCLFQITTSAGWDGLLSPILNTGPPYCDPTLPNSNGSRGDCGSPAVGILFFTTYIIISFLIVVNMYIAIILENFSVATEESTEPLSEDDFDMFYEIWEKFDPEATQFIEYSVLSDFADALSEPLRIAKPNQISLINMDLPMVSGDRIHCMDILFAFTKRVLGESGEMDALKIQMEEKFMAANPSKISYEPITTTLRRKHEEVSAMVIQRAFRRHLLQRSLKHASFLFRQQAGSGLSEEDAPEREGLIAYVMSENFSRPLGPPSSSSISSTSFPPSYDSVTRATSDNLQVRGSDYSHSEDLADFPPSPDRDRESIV
Result Type: inhibition at 1 µM
The reply should consist of the numeric value with the unit placed after it.

// worked examples, inhibition at 1 µM included
Compound: O=C1c2cc(-c3ccc(OC(F)(F)F)cc3)ccc2OCCN1CCc1ccccn1 [II-54]
inhibition at 1 µM: 20%
//
Compound: O=C1c2cc(Nc3ccc(OC(F)(F)F)cc3)ccc2OCCN1Cc1ccccn1 [XIII-4]
inhibition at 1 µM: 9%
//
Compound: O=C1c2cc(-c3ccc(OC(F)(F)F)cc3)ccc2OCCN1Cc1ccccc1Cl [II-47]
inhibition at 1 µM: 45%
//
Compound: O=C1c2cc(Nc3ccc(C(F)(F)F)cc3)ccc2OCCN1Cc1ccccn1 [XIII-6]
inhibition at 1 µM: 8%
//
Compound: Cc1cnc(CN2CCOc3ccc(-c4ccc(OC(F)(F)F)cc4)cc3C2=O)o1 [II-33]
inhibition at 1 µM: 13%
//
Compound: O=C1c2cc(-c3ccc(C(F)F)cc3)ccc2OCCN1Cc1ccccn1 [II-157]
inhibition at 1 µM: 16%
//
Compound: CC1CC=C(c2ccc3c(c2)C(=O)N(Cc2ncccn2)CCO3)CC1 (stereo not shown) [Compound V-5]
inhibition at 1 µM: 5%
//
Compound: O=C1c2cc(-c3ccc(C(F)(F)F)s3)ccc2OCCN1Cc1ccccn1 [VI-31]
inhibition at 1 µM: 42%

Quick check: inhibition at 1 µM of O=C1c2cc(-c3ccc(C(F)(F)F)cc3F)ccc2OCCN1Cc1ncccn1 [II-105] ?
11%

Here is the next compound: O=C1c2cc(-c3ccc(OC(F)(F)F)cc3)ccc2OCCN1Cc1c(Cl)cccc1Cl [II-48]
53%

Here is the next compound: O=C1c2cc(-c3ccc(OC(F)(F)F)cc3)ccc2OCCN1Cc1cccc(C(F)(F)F)n1 [II-15]
8%

Here is the next compound: O=C1c2cc(-c3ccc(OC(F)(F)F)cc3)ncc2OCCN1Cc1ccccc1 [XII-1]
21%

* * *

molecular target: wild-type human cardiac sodium channel, hNav1.5 (Homo sapiens); experiment: Peak INa screening assay (tonic and use-dependent block); type: cell-based; settings: use-dependent block of peak INa, 3 Hz; compound at 1 μM; read-out: Peak UDB 1 μM
Reported inhibition at 1 µM values follow for various molecules
Just the number please, in %, no unit attached.

// worked examples, inhibition at 1 µM included
Smiles Entry: O=C1c2cc(-c3ccc(OC(F)(F)F)cc3)c(F)cc2OCCN1Cc1ccccc1
inhibition at 1 µM, %: 25

Smiles Entry: O=C1c2cc(-c3ccc(OC(F)(F)F)cc3)ccc2OCCN1Cc1ccc(F)cc1
inhibition at 1 µM, %: 14

Smiles Entry: O=C1c2cc(-c3ccc(OC(F)(F)F)cc3)ccc2OCCN1Cc1c(F)cccc1F
inhibition at 1 µM, %: 44

Quick check: inhibition at 1 µM of O=C1c2cc(-c3ccc(OC(F)(F)F)cc3)ccc2OCCN1Cn1cc(Cl)cn1 ?
13

Here is the next molecule: CCn1ccc(CN2CCOc3ccc(-c4ccc(OC(F)(F)F)cc4)cc3C2=O)n1
13

* * *

target: wild-type human cardiac sodium channel, hNav1.5 (Homo sapiens, UniProt Q14524); experiment: Late INa screening assay (QPatch whole cell patch clamp, HEK293); assay type: cell-based; settings: HEK293, percent block of late INa; compound at 1 μM; 10 μM Tefluthrin; read-out: Late INa 1 μM
Classification field: MET = inhibition at 1 µM at or over 30%; NOT MET = inhibition at 1 µM under 30%.

Worked set:
Smiles Entry: CCn1ccc(CN2CCOc3ccc(-c4ccc(OC(F)(F)F)cc4)cc3C2=O)n1
Target Entity: wild-type human cardiac sodium channel, hNav1.5 (Homo sapiens, UniProt Q14524)
Group Label: MET
--
Smiles Entry: CCc1ccc(-c2ccc3c(c2)C(=O)N(Cc2ncccn2)CCO3)cc1
Target Entity: wild-type human cardiac sodium channel, hNav1.5 (Homo sapiens, UniProt Q14524)
Group Label: MET
--
Smiles Entry: O=C1c2cc(-c3ccc(C(F)(F)F)cc3)ccc2OC[C@H]2CCCN12
Target Entity: wild-type human cardiac sodium channel, hNav1.5 (Homo sapiens, UniProt Q14524)
Group Label: NOT MET
--
Smiles Entry: O=C1c2cc(Nc3ccc(OC(F)(F)F)cc3)ccc2OCCN1Cc1ncccn1
Target Entity: wild-type human cardiac sodium channel, hNav1.5 (Homo sapiens, UniProt Q14524)
Group Label: NOT MET

Test whether the molecule O=C1c2cc(-c3ccc(OC(F)(F)F)cc3)ccc2OCCN1Cc1ccc2ccccc2n1 records inhibition at 1 µM of 30% or higher.
MET

Here is the next molecule: O=C(Cc1ccccn1)N1CCOc2ccc(-c3ccc(C(F)(F)F)cc3)cc2C1
MET

# credit: patent US9676760B2
